- experimental_system: UniProtKB P19327
- Sequence (P19327 whole entry): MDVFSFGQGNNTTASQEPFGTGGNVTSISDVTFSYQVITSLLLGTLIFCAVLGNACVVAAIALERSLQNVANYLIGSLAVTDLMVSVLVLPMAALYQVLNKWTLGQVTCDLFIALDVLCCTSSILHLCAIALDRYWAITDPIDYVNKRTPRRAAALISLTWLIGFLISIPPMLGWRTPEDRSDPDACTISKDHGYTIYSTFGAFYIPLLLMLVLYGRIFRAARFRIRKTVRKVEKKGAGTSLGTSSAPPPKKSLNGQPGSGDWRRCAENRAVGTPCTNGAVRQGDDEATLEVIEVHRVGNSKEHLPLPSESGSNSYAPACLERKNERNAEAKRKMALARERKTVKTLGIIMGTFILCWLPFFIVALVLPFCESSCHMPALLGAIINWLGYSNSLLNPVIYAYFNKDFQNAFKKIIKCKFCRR
readout_label: log10(Ki) (log10 of the value in nM)

> print(dat)
                           smiles.structure  readout.label  numeric.result
1  Cn1c(=O)c2c(ncn2CCCCN2CCc3ccccc3C2)n(C)c1=O      log10(Ki)            2.38
2  COc1ccccc1N1CCN(CCCn2cnc3c2c(=O)n(C)c(=O)n3C)CC1      log10(Ki)            2.08
3  Cn1c(=O)c2c(ncn2CCCCN2CCN(c3cccc(Cl)c3Cl)CC2)n(C)c1=O      log10(Ki)            1.74
4  Cl.Cn1c(=O)c2c(ncn2CCCCN2CCN(c3cccc(Cl)c3)CC2)n(C)c1=O      log10(Ki)            0.00
5  Cl.Cn1c(=O)c2c(ncn2CCCCCN2CCN(c3cccc(Cl)c3)CC2)n(C)c1=O      log10(Ki)            0.70
6  Cn1c(=O)c2c(ncn2CCCCN2CCN(c3ccccc3)CC2)n(C)c1=O      log10(Ki)            1.36
7  Cn1c(=O)c2c(ncn2CCCN2CCN(c3cccc(Cl)c3)CC2)n(C)c1=O      log10(Ki)            2.26

* * *

# UniProt P34969: Ki values follow
# Sequence (P34969 whole entry): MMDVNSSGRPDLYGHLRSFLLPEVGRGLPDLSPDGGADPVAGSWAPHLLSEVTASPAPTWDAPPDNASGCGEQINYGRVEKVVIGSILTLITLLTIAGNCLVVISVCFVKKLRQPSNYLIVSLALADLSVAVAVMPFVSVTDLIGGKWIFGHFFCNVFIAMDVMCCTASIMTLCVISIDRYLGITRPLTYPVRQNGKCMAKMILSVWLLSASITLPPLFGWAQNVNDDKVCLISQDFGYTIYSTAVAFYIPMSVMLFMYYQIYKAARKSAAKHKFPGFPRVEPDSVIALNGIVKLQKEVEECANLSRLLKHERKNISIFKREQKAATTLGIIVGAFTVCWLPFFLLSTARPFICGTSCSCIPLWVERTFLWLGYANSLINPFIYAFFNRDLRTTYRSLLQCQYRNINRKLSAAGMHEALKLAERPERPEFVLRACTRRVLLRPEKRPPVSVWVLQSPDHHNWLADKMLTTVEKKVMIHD
readout_label: Ki

> print(dat)
                           smiles.structure  readout.label   result
1  Cn1c(=O)c2c(ncn2CCCCCN2CCc3ccccc3C2)n(C)c1=O             Ki  1010 nM
2  Cn1c(=O)c2c(ncn2CCCN2CCN(c3cccc(Cl)c3)CC2)n(C)c1=O             Ki  2800 nM
3  COc1ccccc1N1CCN(CCCn2cnc3c2c(=O)n(C)c(=O)n3C)CC1             Ki  2210 nM
4  COc1ccccc1N1CCN(CCCCn2cnc3c2c(=O)n(C)c(=O)n3C)CC1             Ki   434 nM
5  Cn1c(=O)c2c(ncn2CCCN2CCc3ccccc3C2)n(C)c1=O             Ki  3620 nM
